Value source: PubChem BioAssay (NCATS)

assay: Drug repurposing screens with cells derived from glioblastoma tumor samples (AID 1345199); conditions: GBM patient neurospheres viability, ATP luminescence, 48 h; at 46 µM (top of the series); tumour line A; also: % is scaled to controls: 0 for no effect and ±100 for the full control effect
Records with an inconclusive call do not appear. Where a SMILES comes first, the peptide text is derived from it. Bridges are numbered along the chain shown (N, C = ends). [ ]: non-standard residue; d: D form. hArg = N=C(N)NCCCC[C@H](N)C(=O)O; Mpa = O=C(O)CCS
We label by threshold. Values of activity, negative = cell killing strictly beneath -20% are 1 (yes). Values of -20% and up are 0 (no).

The following molecules have reported results that may help.
1) CCCCCC(N)=O: 0 (no)
2) CC1(C)S[C@@H]2[C@H](N=CN3CCCCCC3)C(=O)N2[C@H]1C(=O)O: 0 (no)
3) NC(=O)[C@@H]1CSSCCC(=O)N[C@@H](CCCCN=C(N)N)C(=O)NCC(=O)N[C@@H](CC(=O)O)C(=O)N[C@@H](Cc2c[nH]c3ccccc23)C(=O)N2CCC[C@H]2C(=O)N1 ([Mpa][hArg]GDWPC-NH2; disulfide 1-7): 0 (no)
4) O=C(O)c1ccc(OCCCOc2ccc(C(=O)O)cc2)cc1: 1 (yes)
5) CC(C)C[C@@H](N)C(=O)O: 0 (no)

Inquiry: Item Cc1c(N(C)C)c(=O)n(-c2ccccc2)n1C : activity, negative = cell killing beneath -20%, strictly?
Reply text: 0 (no)

Inquiry: Item Nc1ccncc1N : activity, negative = cell killing beneath -20%, strictly?
Reply text: 0 (no)

Inquiry: Item CCOC(=O)[C@H](CCc1ccccc1)N[C@@H](C)C(=O)N1CCC[C@H]1C(=O)O : activity, negative = cell killing beneath -20%, strictly?
Reply text: 0 (no)

Inquiry: Item COc1ccc(C(=O)N2CCN(CC(=O)N3CCOCC3)CC2)cc1 : activity, negative = cell killing beneath -20%, strictly?
Reply text: 1 (yes)

Inquiry: Item O=C(O)CNC(=O)c1ccccc1I : activity, negative = cell killing beneath -20%, strictly?
Reply text: 1 (yes)

Inquiry: Item CCCNC(C)(C)COC(=O)c1ccccc1 : activity, negative = cell killing beneath -20%, strictly?
Reply text: 0 (no)

Inquiry: Item Cc1cc(C)c(NC(=O)CN(CC(=O)O)CC(=O)O)c(C)c1Br : activity, negative = cell killing beneath -20%, strictly?
Reply text: 0 (no)

Inquiry: Item O=C(O)c1ccc[n+]([O-])c1 : activity, negative = cell killing beneath -20%, strictly?
Reply text: 1 (yes)

* * *

assay: Drug repurposing screens with cells derived from glioblastoma tumor samples (AID 1345199); settings: GBM patient neurospheres viability, ATP luminescence, 48 h; at 21.2 µM (top of the series); tumour line B; also: % is scaled to controls: 0 for no effect and ±100 for the full control effect
Inconclusive results are not listed.
Answer each item with its documented activity, negative = cell killing.
Numbers only, in %.

1. O=C(O)/C=C/c1ccc(Cn2ccnc2)cc1: -8.95
2. CO[C@@]1(NC(=O)C(C(=O)O)c2ccc(O)cc2)C(=O)N2C(C(=O)O)=C(CSc3nnnn3C)CO[C@@H]21 (some centres undefined): -0.689
3. CC(=O)OCC(=O)[C@@]1(O)CC[C@H]2[C@@H]3CCC4=CC(=O)C=C[C@]4(C)[C@@]3(F)[C@@H](O)C[C@@]21C: 1.05
4. CCCCC1(COC(=O)CCC(=O)O)C(=O)N(c2ccccc2)N(c2ccccc2)C1=O: -15.2
5. CC(C)(C)NCC(O)COc1cccc2c1CCC(=O)N2 (centres undefined): -10.6
6. O=C(NCC(O)CO)c1c(I)c(C(=O)NCC(O)CO)c(I)c(N(CCO)C(=O)CO)c1I (centres undefined): -9.85
7. C/C=C/C(=O)N(CC)c1ccccc1C: 0.996
8. CN[C@@H]1[C@H](O)[C@H](NC)[C@H]2O[C@@]3(O)C(=O)C[C@@H](C)O[C@H]3O[C@@H]2[C@H]1O: -21.3

Okay, next one:
Inquiry: Provide one value: measured activity, negative = cell killing of NS(=O)(=O)c1cc(C2(O)NC(=O)c3ccccc32)ccc1Cl (centres undefined)
Reply text: 6.28
